# test_target: Neuronal acetylcholine receptor; alpha4/beta2 (Rattus norvegicus, UniProt P09483+P12390)
# Sequence (P09483 whole entry): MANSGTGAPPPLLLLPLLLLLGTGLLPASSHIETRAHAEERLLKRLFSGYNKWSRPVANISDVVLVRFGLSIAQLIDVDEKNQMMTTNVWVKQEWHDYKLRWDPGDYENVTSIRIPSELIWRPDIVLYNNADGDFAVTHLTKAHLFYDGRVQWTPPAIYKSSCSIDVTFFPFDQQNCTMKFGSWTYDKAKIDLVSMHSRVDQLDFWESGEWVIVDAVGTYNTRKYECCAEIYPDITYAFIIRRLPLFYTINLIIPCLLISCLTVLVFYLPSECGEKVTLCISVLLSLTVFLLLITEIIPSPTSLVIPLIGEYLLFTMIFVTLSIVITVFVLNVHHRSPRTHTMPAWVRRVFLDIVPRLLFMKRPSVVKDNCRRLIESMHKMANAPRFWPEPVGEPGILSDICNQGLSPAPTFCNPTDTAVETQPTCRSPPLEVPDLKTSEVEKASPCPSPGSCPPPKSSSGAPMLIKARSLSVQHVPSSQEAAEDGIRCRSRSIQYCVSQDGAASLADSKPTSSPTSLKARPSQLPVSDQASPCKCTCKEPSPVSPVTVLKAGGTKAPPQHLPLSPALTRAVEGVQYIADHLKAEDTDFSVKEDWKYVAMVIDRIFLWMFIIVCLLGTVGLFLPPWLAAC
# Sequence (P12390 whole entry): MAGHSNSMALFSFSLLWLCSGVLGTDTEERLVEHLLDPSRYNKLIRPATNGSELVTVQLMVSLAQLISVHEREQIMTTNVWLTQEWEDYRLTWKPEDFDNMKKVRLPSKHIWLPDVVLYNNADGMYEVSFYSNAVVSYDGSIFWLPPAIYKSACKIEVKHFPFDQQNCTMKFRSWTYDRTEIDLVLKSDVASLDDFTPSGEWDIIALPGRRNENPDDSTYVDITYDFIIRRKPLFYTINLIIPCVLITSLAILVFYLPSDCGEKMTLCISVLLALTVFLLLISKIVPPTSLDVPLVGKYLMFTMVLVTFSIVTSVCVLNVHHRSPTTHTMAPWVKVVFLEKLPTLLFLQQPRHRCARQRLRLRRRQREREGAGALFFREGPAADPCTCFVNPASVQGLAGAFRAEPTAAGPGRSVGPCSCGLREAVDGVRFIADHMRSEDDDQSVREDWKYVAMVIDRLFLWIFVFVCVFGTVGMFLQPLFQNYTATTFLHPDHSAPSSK
# assay_remarks: Displacement of [3H]cytisine from alpha4beta2 nAChR in rat brain homogenate
measured_parameter: pKi
Friendly reminder that pKi comes from taking -log10 of the concentration in mol/L.

IN: Returns the measured pKi for the input compound. Input: Fc1ncccc1OC[C@@H]1C=CCN1
OUT: 9.30
